For each entry below, report its pIC50 value.
Molecular target: UniProtKB P21396
Sequence (P21396 whole entry): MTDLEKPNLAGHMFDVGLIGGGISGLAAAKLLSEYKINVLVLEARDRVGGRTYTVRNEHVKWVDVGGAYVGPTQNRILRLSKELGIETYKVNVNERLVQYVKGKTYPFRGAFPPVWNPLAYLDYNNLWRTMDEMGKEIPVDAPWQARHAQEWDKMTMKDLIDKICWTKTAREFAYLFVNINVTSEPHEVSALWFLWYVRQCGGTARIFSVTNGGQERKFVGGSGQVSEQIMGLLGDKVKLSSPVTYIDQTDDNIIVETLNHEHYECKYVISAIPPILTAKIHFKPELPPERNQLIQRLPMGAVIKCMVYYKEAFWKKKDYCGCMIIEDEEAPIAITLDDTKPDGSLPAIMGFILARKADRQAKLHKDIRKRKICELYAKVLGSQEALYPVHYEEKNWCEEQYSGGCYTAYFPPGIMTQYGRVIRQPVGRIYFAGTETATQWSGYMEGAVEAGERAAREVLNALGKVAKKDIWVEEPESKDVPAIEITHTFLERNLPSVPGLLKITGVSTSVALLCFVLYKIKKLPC
// pIC50 is dimensionless: -log10 of concentration (M)

input: Entry CCCCCCOc1ccc(CC2SC(=O)NC2=O)cc1 (stereo not drawn) : reported pIC50 = ?
output: 5.00

input: Entry O=C1NC(=O)C(=Cc2ccc(OCCc3ccccc3)cc2)S1 : reported pIC50 = ?
output: 4.52

----------
For each entry below, report its Ratio A/B value.
Molecular target: MAO-B (Rattus norvegicus, UniProt P19643)
Construct: Both Forms of Monoamine Oxidase in the Rat Brain; from tissue
Sequence (P19643 whole entry): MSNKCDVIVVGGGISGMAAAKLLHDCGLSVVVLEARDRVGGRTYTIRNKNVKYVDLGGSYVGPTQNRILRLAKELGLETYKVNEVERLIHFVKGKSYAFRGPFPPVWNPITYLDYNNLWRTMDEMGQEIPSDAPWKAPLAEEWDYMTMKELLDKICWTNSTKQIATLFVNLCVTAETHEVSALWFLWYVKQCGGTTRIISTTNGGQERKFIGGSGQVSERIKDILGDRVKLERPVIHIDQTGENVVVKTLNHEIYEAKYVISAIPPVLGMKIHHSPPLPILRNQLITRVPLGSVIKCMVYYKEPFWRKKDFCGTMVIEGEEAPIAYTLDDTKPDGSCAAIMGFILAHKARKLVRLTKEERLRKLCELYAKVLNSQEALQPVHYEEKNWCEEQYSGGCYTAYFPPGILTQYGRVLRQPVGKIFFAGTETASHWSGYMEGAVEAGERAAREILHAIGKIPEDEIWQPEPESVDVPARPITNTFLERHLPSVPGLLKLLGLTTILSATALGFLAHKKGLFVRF
Assay: Monoamine oxidase-B (MAO-B) inhibition assay
Assay type: biochemical
Conditions: ratio of MAO-A IC50 to MAO-B IC50
Answer as a number with no unit attached.

input: Entry N#CCN1C(=O)SC(=Cc2ccc(OCCc3ccccc3)cc2)C1=O [Example 5] : reported Ratio A/B = ?
output: 15

input: Entry O=C1NC(=O)C(=Cc2cccc(OCc3ccccc3)c2)S1 [Example 1] : reported Ratio A/B = ?
output: 1

input: Entry O=C1NC(=O)C(Cc2ccc(OCC34CC5CC(CC(C5)C3)C4)cc2)S1 (stereo not drawn) [Example 7] : reported Ratio A/B = ?
output: 300

input: Entry CCCCCCOc1ccc(CC2SC(=O)NC2=O)cc1 (stereo not drawn) [Example 6] : reported Ratio A/B = ?
output: 100

----------
Molecular target: MAO-B (Rattus norvegicus)
Construct: Both Forms of Monoamine Oxidase in the Rat Brain; from tissue
Assay: Monoamine oxidase-B (MAO-B) inhibition assay
Type: biochemical
Settings: ratio of MAO-A IC50 to MAO-B IC50
Assay Readout: Ratio A/B

input: Reported Ratio A/B for MAO-B (Rattus norvegicus), given N#CCCCN1C(=O)SC(=Cc2ccc(OCc3cccc(Cl)c3)cc2)C1=O ?
output: < 1

input: Reported Ratio A/B for MAO-B (Rattus norvegicus), given O=C1NC(=O)C(=Cc2ccc(OCCc3ccccc3)cc2)S1 ?
output: > 300

input: Reported Ratio A/B for MAO-B (Rattus norvegicus), given N#CCCCCN1C(=O)SC(=Cc2cccc(OCc3ccccc3)c2)C1=O ?
output: > 1428

input: Reported Ratio A/B for MAO-B (Rattus norvegicus), given N#CCCCN1C(=O)SC(=Cc2cccc(OCc3ccccc3)c2)C1=O ?
output: > 50000

input: Reported Ratio A/B for MAO-B (Rattus norvegicus), given O=C1NC(=O)C(=Cc2ccc(OCc3cccc(Cl)c3)cc2)S1 ?
output: > 3
